Catalogue of compounds with associated Population Pyknosed Nuclei (%)
- System: Fibroblast
- protocol_details: Multiplex assay against human fibroblast
- Type: toxicity, cell-based
- condition_label: 24 h, 1 µM, compound concentration 1 uM, replicate 1

Study these solved cases before continuing.
C=CC(=O)Nc1cccc(Sc2nc(Nc3ccc(N4CCN(C)CC4)cc3)ncc2Cl)c1 ... 40%
O=C(c1cc2c(cc1F)OC(c1ccc(F)cc1)(c1ccc(Cl)cc1Cl)O2)N1CCOCC1 (stereo not given) ... 21%
CC(C)(C)NC[C@H](O)COc1nsnc1N1CCOCC1 [TIMOLOL] ... 27%

What value of measured Population Pyknosed Nuclei (%) is listed for CC(C)Oc1ccccc1C(=O)Nc1ccccc1C(=O)Nc1cccc(S(=O)(=O)C(F)(F)F)c1 ? 22%

And what about the compound C[C@]12CC[C@@H]3c4ccc(O)cc4CC[C@H]3[C@@H]1CC[C@@H]2O [ESTRADIOL] ? 16%

---

- Test system: Fibroblast
- protocol_details: Multiplex assay against human fibroblast
- Assay type: toxicity, cell-based
- condition_label: 24 h, 10 µM, compound concentration 10 uM, replicate 2
quantity_measured: Population Normal (%)
Kindly provide the numeric value in % only, without the unit symbol.

Cc1c[nH]c2nccc(Oc3c(F)cc(Nc4cc(Cl)nc(N)n4)cc3F)c12 ... 94
O=c1cc(N2CCOCC2)oc2c(-c3cccc4c3sc3ccccc34)cccc12 ... 94
O=c1[nH]c2ccccc2n1C1CCN(Cc2ccc(-c3[nH]c4cc5ncnc5cc4nc3-c3ccccc3)cc2)CC1 ... 48
Cc1ccc(C)c(Oc2ccncc2C(=O)N2CCN(C3CC3)c3ccccc32)c1 ... 92
CC(C)NC(=O)N1CC[C@H](NC2=Nc3cc(F)ccc3N(CC(F)F)c3ccc(Cl)cc32)C1 ... 90
COc1ccc(-c2ccc3ncc4c(c3c2)n(-c2ccc(N3CCNCC3)c(C(F)(F)F)c2)c(=O)n4C)cn1.O=C(O)/C=C\C(=O)O ... 35
CC(C)c1noc(N2CCC(COc3ccc(-c4ccc(S(C)(=O)=O)cc4)nc3)CC2)n1 ... 95
Cc1ccccc1C(c1ccccc1C)N1C2CCC1CC(O)(c1ccccc1)C2 (centres undefined) ... 93

Shift focus to the following entry.
What value of measured Population Normal (%) is listed for Cc1ccc2c(c1)c1c(n2CCc2ccc(C)nc2)CCN(C)C1 [LATREPIRDINE] ? 95

---

- Tested on: U2OS
- protocol_details: Multiplex assay against U2OS
- Type: toxicity, cell-based
- condition_label: human, 48 h, 1 µM, compound concentration 1 uM, replicate 2
quantity_measured: Population Healthy Nuclei (%)
Please give the number followed by its unit.

COc1ccc(-c2ccc3ncc4c(c3c2)n(-c2ccc(N3CCNCC3)c(C(F)(F)F)c2)c(=O)n4C)cn1.O=C(O)/C=C\C(=O)O [BGT-226] ... 35%
COc1ccccc1CN[C@H]1C2CCN(CC2)[C@H]1C(c1ccccc1)c1ccccc1 [CP-96345] ... 89%
Cc1c[nH]c2nccc(Oc3c(F)cc(Nc4cc(Cl)nc(N)n4)cc3F)c12 [BAY-549] ... 73%

What is its Population Healthy Nuclei (%) for U2OS? Entry: CC(C)OC(=O)N1CCC(Oc2ncnc3c2cnn3-c2ccc(S(C)(=O)=O)cc2F)CC1 88%

And what about the compound CC(C)Oc1ccccc1C(=O)Nc1ccccc1C(=O)Nc1cccc(S(=O)(=O)C(F)(F)F)c1 ? 72%

And what about the compound Cc1ccccc1C(c1ccccc1C)N1C2CCC1CC(O)(c1ccccc1)C2 (centres undefined) ? 88%

And what about the compound COc1cc(Nc2nccc(-c3cnn4nc(OC)ccc34)n2)cc(C(F)(F)F)c1 ? 81%

And what about the compound CC(C)(C)NC[C@H](O)COc1nsnc1N1CCOCC1 [TIMOLOL] ? 88%

And what about the compound CCCSc1nc(N[C@@H]2C[C@H]2c2ccc(F)c(F)c2)c2nnn([C@@H]3C[C@H](OCCO)[C@@H](O)[C@H]3O)c2n1 [TICAGRELOR] ? 88%

---

- System: U2OS
- protocol_details: Incucyte cell viability with U2OS; also: filed as whole numbers so only -1 and 0 and 1 occur
- Format: toxicity, cell-based
- condition_label: human, 18 h, 10 µM, compound concentration 10 uM, replicate number 1, timepoint 18 hours
quantity_measured: Growth Rate
// keep it numeric: no unit symbol after the value

Cc1noc([C@H]2C[C@@H](c3ccc(C(F)(F)F)cc3)CN(C(=O)N3CCS(=O)(=O)C3)C2)n1 ... 0
CN1CCc2c(c3ccccc3n2Cc2ccc(C(=O)NO)cc2)C1 ... 1
Cc1cnc(-c2cc(Cl)ccc2F)cc1-n1c(=O)n(CC(N)=O)c2ccccc21 ... 1

Shift focus to the following entry.
What value of measured Growth Rate is listed for Cc1cc(-n2nc(Cc3cc(F)cc(C(F)(F)F)c3)nc2C)ccc1C(N)=O ? 0

---

- System: U2OS
- protocol_details: Multiplex assay against U2OS
- Format: toxicity, cell-based
- condition_label: human, 24 h, 10 µM, compound concentration 10 uM, replicate 1
Exam item: assign yes to entries whose Population Fragmented Nuclei (%) is below 20% and no to entries at or above 20%. Note that a value of exactly 20% receives no.

CCOC(=O)Nc1cc(-c2ccc(C)c(NS(C)(=O)=O)c2)nn2c(C)nnc12 ... yes
CNC(=O)Nc1ccc2c(c1)[C@@]1(CC2)OC(=O)N(CC(=O)N(Cc2ccc(F)cc2)[C@@H](C)C(F)(F)F)C1=O ... yes
Cc1cccc(CN2CCN(C(c3ccccc3)c3ccc(Cl)cc3)CC2)c1.Cl.Cl (configuration not stated) ... yes

Identify whether the molecule Cl.O=C(O)c1cc(-c2ccc(C3CCNCC3)cc2)c2ccc(-c3ccc(C(F)(F)F)cc3)cc2c1 records Population Fragmented Nuclei (%) below 20%. yes

And what about the molecule Cc1c[nH]c2nccc(Oc3c(F)cc(Nc4cc(Cl)nc(N)n4)cc3F)c12 ? no

And what about the molecule CCCSc1nc(N[C@@H]2C[C@H]2c2ccc(F)c(F)c2)c2nnn([C@@H]3C[C@H](OCCO)[C@@H](O)[C@H]3O)c2n1 ? yes

And what about the molecule CN(c1ccccc1CNc1nc(Nc2ccc3c(c2)CC(=O)N3)ncc1C(F)(F)F)S(C)(=O)=O ? yes

And what about the molecule O=C(c1cc2c(cc1F)OC(c1ccc(F)cc1)(c1ccc(Cl)cc1Cl)O2)N1CCOCC1 (configuration not stated) ? yes

And what about the molecule COc1ccccc1CN[C@H]1C2CCN(CC2)[C@H]1C(c1ccccc1)c1ccccc1 ? yes

And what about the molecule Cc1ccc2c(c1)c1c(n2CCc2ccc(C)nc2)CCN(C)C1 [LATREPIRDINE] ? yes

And what about the molecule COc1ccc(-c2ccc3ncc4c(c3c2)n(-c2ccc(N3CCNCC3)c(C(F)(F)F)c2)c(=O)n4C)cn1.O=C(O)/C=C\C(=O)O ? no

And what about the molecule CC(C)OC(=O)N1CCC(Oc2ncnc3c2cnn3-c2ccc(S(C)(=O)=O)cc2F)CC1 ? yes

---

- System: Fibroblast
- protocol_details: Multiplex assay against human fibroblast
- Assay type: toxicity, cell-based
- condition_label: 48 h, 10 µM, compound concentration 10 uM, replicate 1
Exam item: assign TRUE to entries whose Population Tubulin-Different-Phenotype (%) is below 70% and FALSE to entries at or above 70%. Note that a value of exactly 70% receives FALSE.

Record excerpt, results attached:
Cc1ccc2c(c1)c1c(n2CCc2ccc(C)nc2)CCN(C)C1 [LATREPIRDINE] ... FALSE
CC(C)OC(=O)N1CCC(Oc2ncnc3c2cnn3-c2ccc(S(C)(=O)=O)cc2F)CC1 ... FALSE
CCc1nn(CCCN2CCN(c3cccc(Cl)c3)CC2)c(=O)n1CCOc1ccccc1.Cl [NEFAZODONE HYDROCHLORIDE] ... FALSE

Identify whether the compound CCCSc1nc(N[C@@H]2C[C@H]2c2ccc(F)c(F)c2)c2nnn([C@@H]3C[C@H](OCCO)[C@@H](O)[C@H]3O)c2n1 records Population Tubulin-Different-Phenotype (%) below 70%. FALSE

And what about the compound Cc1c[nH]c2nccc(Oc3c(F)cc(Nc4cc(Cl)nc(N)n4)cc3F)c12 ? TRUE

And what about the compound CCOC(=O)Nc1cc(-c2ccc(C)c(NS(C)(=O)=O)c2)nn2c(C)nnc12 ? TRUE

And what about the compound Cl.O=C(O)c1cc(-c2ccc(C3CCNCC3)cc2)c2ccc(-c3ccc(C(F)(F)F)cc3)cc2c1 ? TRUE

---

Catalogue of compounds with associated Population Membrane Permeable-Phenotype (%)
- System: U2OS
- protocol_details: Multiplex assay against U2OS
- Format: toxicity, cell-based
- condition_label: human, 24 h, 10 µM, compound concentration 10 uM, replicate 1
Kindly provide the numeric value in % only, without the unit symbol.

Study these solved cases before continuing.
Cc1ccc2c(c1)c1c(n2CCc2ccc(C)nc2)CCN(C)C1 [LATREPIRDINE] ... 24
O=c1[nH]c2ccccc2n1C1CCN(Cc2ccc(-c3[nH]c4cc5ncnc5cc4nc3-c3ccccc3)cc2)CC1 ... 53
CN1CCN(Cc2ccc(Nc3ncc(Cl)c(Nc4ccccc4S(=O)(=O)N(C)C)n3)cc2)CC1 ... 4
COc1cc(Nc2nccc(-c3cnn4nc(OC)ccc34)n2)cc(C(F)(F)F)c1 ... 2
CC(C)Oc1ccccc1C(=O)Nc1ccccc1C(=O)Nc1cccc(S(=O)(=O)C(F)(F)F)c1 ... 92
CC(C)(C)NC[C@H](O)COc1nsnc1N1CCOCC1 ... 5
C[C@]12CC[C@@H]3c4ccc(O)cc4CC[C@H]3[C@@H]1CC[C@@H]2O ... 2
CCc1ccc(OCc2ccccc2C(=O)Nc2ccc3nc(C)cc(N)c3c2)cc1.Cl ... 54
Cc1c[nH]c2nccc(Oc3c(F)cc(Nc4cc(Cl)nc(N)n4)cc3F)c12 ... 12
CC(C)NC(=O)N1CC[C@H](NC2=Nc3cc(F)ccc3N(CC(F)F)c3ccc(Cl)cc32)C1 ... 15

What value of measured Population Membrane Permeable-Phenotype (%) is listed for Cc1cccc(CN2CCN(C(c3ccccc3)c3ccc(Cl)cc3)CC2)c1.Cl.Cl (stereo unspecified) ? 2

And what about the compound C=CC(=O)Nc1cccc(Sc2nc(Nc3ccc(N4CCN(C)CC4)cc3)ncc2Cl)c1 ? 24

And what about the compound CC1=C(C(=O)Nc2cc3cn[nH]c3cc2F)C(c2ccc(C(F)(F)F)cc2)CC(=O)N1 (stereo unspecified) ? 1

Data provenance: ChEMBL document CHEMBL4689842
